Test system: Wolbachia pipientis
ASSAY NAME: Anti-Wolbachia Cell-Based Screen
Assay type: functional
Design: scale not given: in the data most compounds retested in dose-response had high values
TEST CONDITIONS: 5 µM
Among all 48,000 compounds or so, about 13,000 (27%) showed an effect of 50% or more. Some of the results follow.
MEASUREMENT LABEL: Percent Effect
Could you write the number and then its unit?

Give Percent Effect (Wolbachia pipientis) of the following molecule: "O=C(CS(=O)(=O)Cc1nnnn1C1CC1)NCC1CC1"
-6.472%

Give Percent Effect (Wolbachia pipientis) of the following molecule: "O=C(C1=CCCC1)N1CCC[C@]2(C[C@@H](OCc3ccccn3)CO2)C1.O=C(O)C(F)(F)F"
5.284%

Give Percent Effect (Wolbachia pipientis) of the following molecule: "CC(C)NC(=O)N1CCC2(CC1)COc1ccccc1S(=O)(=O)N(C)C2"
105.4%

Give Percent Effect (Wolbachia pipientis) of the following molecule: "O=C(CS(=O)(=O)Cc1nnnn1C1CC1)NCCc1ccccc1"
-17.89%

Give Percent Effect (Wolbachia pipientis) of the following molecule: "CC(C)NC(=O)[C@]12COC[C@H]1CN(Cc1cnn(C)c1)C2"
82.27%

Give Percent Effect (Wolbachia pipientis) of the following molecule: CC(Cn1cncn1)Nc1ccc(-c2nccn2C)nn1 (centres undefined)
-4.731%

Give Percent Effect (Wolbachia pipientis) of the following molecule: [O-][S+](Cc1c(F)cccc1Cl)Cc1nnnn1C1CC1 (centres undefined)
117.1%

Give Percent Effect (Wolbachia pipientis) of the following molecule: COCCC1COC2(CCN(C(=O)C3CCC3)CC2)C1 (centres undefined)
-7.726%

Give Percent Effect (Wolbachia pipientis) of the following molecule: COc1ncccc1NC(=O)NC1CCCN(c2ncccn2)C1 (centres undefined)
123%

Give Percent Effect (Wolbachia pipientis) of the following molecule: CC(=O)N1CC(=O)N(c2cnn(C)c2)CC12CCN(Cc1ccoc1)C2 (centres undefined)
-11.13%

Give Percent Effect (Wolbachia pipientis) of the following molecule: "Cn1cc(CN2C[C@@H]3COC[C@]3(C(=O)N3CCCO3)C2)cn1"
-0.6058%

Give Percent Effect (Wolbachia pipientis) of the following molecule: "O=C(NCc1cccs1)[C@]12COC[C@H]1CN(c1ncccn1)C2.O=C(O)C(F)(F)F"
-12.11%

Give Percent Effect (Wolbachia pipientis) of the following molecule: "CCc1ccc2nc(NCCCN(CCO)CCO)cc(C)c2c1"
14.19%

Give Percent Effect (Wolbachia pipientis) of the following molecule: COC(=O)CC(NC(=O)c1cccc(N2CCCC2=O)c1)C(=O)OC (centres undefined)
-7.194%

Give Percent Effect (Wolbachia pipientis) of the following molecule: CC(=O)N1CC(=O)N(c2ccccc2)CC12CCN(Cc1cccs1)C2.O=C(O)C(F)(F)F (centres undefined)
4.365%

Give Percent Effect (Wolbachia pipientis) of the following molecule: "CN(Cc1nnnn1C1CC1)c1cccc2ccccc12"
-12.9%

Give Percent Effect (Wolbachia pipientis) of the following molecule: CC(C)CC(=O)N1CCCC1c1nccnc1Nc1ncccn1 (centres undefined)
105.7%

Give Percent Effect (Wolbachia pipientis) of the following molecule: "Cc1noc([C@@H]2C[C@H](NC(=O)NC3CCCCC3)CN2C)n1"
-10.92%

Give Percent Effect (Wolbachia pipientis) of the following molecule: "CC(=O)N1[C@@H](C(=O)NCC2CC2)C[C@@H]2CN(Cc3nccs3)C[C@@H]21.O=C(O)C(F)(F)F"
88.62%

Give Percent Effect (Wolbachia pipientis) of the following molecule: Cc1cccc(Nc2nccnc2C2CCCN2CC(N)=O)n1 (centres undefined)
127.5%

Give Percent Effect (Wolbachia pipientis) of the following molecule: "O=S(=O)(Cc1c(F)cccc1Cl)NCCCN1CCCCCC1"
1.36%

Give Percent Effect (Wolbachia pipientis) of the following molecule: CC(=O)N1CC(=O)N(c2cnn(C)c2)CC12CCN(Cc1ccsc1)C2.O=C(O)C(F)(F)F.O=C(O)C(F)(F)F (centres undefined)
4.027%

Give Percent Effect (Wolbachia pipientis) of the following molecule: "O=S(=O)(Nc1ccccn1)c1cc(Cl)cc2c1OCC2"
-2.666%

Give Percent Effect (Wolbachia pipientis) of the following molecule: Cc1noc(C2CCCN2C(=O)C2CCC2)n1 (centres undefined)
124.3%

Give Percent Effect (Wolbachia pipientis) of the following molecule: CC(=O)N1CCCC1c1nc(C)no1 (centres undefined)
122.1%

Give Percent Effect (Wolbachia pipientis) of the following molecule: "CO[C@H]1CN(Cc2cccc(C#N)c2)[C@@H]2COC[C@H]12.O=C(O)C(F)(F)F"
-6.68%

Give Percent Effect (Wolbachia pipientis) of the following molecule: Cl.NCC(=O)N1CCCC1c1nccnc1Nc1ncccn1 (centres undefined)
117.8%

Give Percent Effect (Wolbachia pipientis) of the following molecule: "Nc1ccc(-c2ccc(F)cc2Cl)cn1"
-14.84%

Give Percent Effect (Wolbachia pipientis) of the following molecule: CCOc1ncccc1NC(=O)NC1CCCN(S(C)(=O)=O)C1 (centres undefined)
87.05%

Give Percent Effect (Wolbachia pipientis) of the following molecule: "CNS(=O)(=O)c1ccccc1N1CCN(C(=O)C(C)C)CC1"
-15.34%

Give Percent Effect (Wolbachia pipientis) of the following molecule: "O=S(=O)(Cc1ccccc1F)Cc1nnnn1C1CC1"
106.9%

Give Percent Effect (Wolbachia pipientis) of the following molecule: CCC(CC)C(CNC(=O)Nc1ccc(OC)cc1)N1CCOCC1 (centres undefined)
4.336%

Give Percent Effect (Wolbachia pipientis) of the following molecule: COc1ccc(NC(=O)C(c2ccc(OC)cc2)N2CCOCC2)cc1 (centres undefined)
109.2%

Give Percent Effect (Wolbachia pipientis) of the following molecule: "CCOc1ncccc1NC(=O)N1CCN(c2cccc(C)c2C)CC1"
-4.888%

Give Percent Effect (Wolbachia pipientis) of the following molecule: "O=S(=O)(CCCc1ccccc1)Cc1nnnn1C1CC1"
-8.499%

Give Percent Effect (Wolbachia pipientis) of the following molecule: "O=C(NCC1CC1)[C@H]1CN(Cc2nccs2)C[C@H]2OCC[C@@H]12.O=C(O)C(F)(F)F"
-15.61%

Give Percent Effect (Wolbachia pipientis) of the following molecule: "COc1cc(CNc2nc(C(F)(F)F)no2)cc(OC)c1OC"
5.574%

Give Percent Effect (Wolbachia pipientis) of the following molecule: CC(=O)N1CC(=O)N(c2cnn(C)c2)CC12CCN(Cc1ccco1)C2 (centres undefined)
98.22%

Give Percent Effect (Wolbachia pipientis) of the following molecule: "CC(C)N(C)CCNC(=O)NCc1ccccc1-n1cccn1"
-1.809%
